# ASSAY_METHOD_TEXT: protein stability index of a GFP-peptide fusion (GPS, HEK-293T) (PSI 1-6); higher = more stable;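 note: 24-mer peptide tiles fused after GFP, lentivirally expressed, FACS-sorted into six equal bins by GFP/DsRed ratio, decoded by Illumina sequencing, PSI is the read-weighted mean bin number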
# CONDITION_DETAILS: treatment: DMSO; c terminus: a fixed tail appended
I'd be grateful if you could share measured protein stability index for these entries.
Form rule: numeric answer, no unit written next to it.

Request: Return the recorded protein stability index value; entry: RWDMADNEQVLTTEHEKKQKLETD [YJU2B]
Result: 5.39

Request: Return the recorded protein stability index value; entry: MGEPAGVAGTMESPFSPGLFHRLD [ATF6]
Result: 3.58

Request: Return the recorded protein stability index value; entry: TATFAVHFMVLSKSGPGDGFFSSA [POMT2]
Result: 2.84

Request: Return the recorded protein stability index value; entry: VGLNTIADLWYLFGDLSLSLVTVG [POMT2]
Result: 3.71

Request: Return the recorded protein stability index value; entry: ESLEPDAQVLMLGQILELPWKEET [FANCE]
Result: 4.17

* * *

# ASSAY_METHOD_TEXT: protein stability index of a GFP-peptide fusion (GPS, HEK-293T) (PSI 1-6); higher = more stable
# CONDITION_DETAILS: treatment: MLN4924 1 uM, 8 h; c terminus: a fixed tail appended
OUTCOME_MEASURE: protein stability index
Form rule: numeric answer, no unit written next to it.

Request: Return the recorded protein stability index value; entry: LSQRVMCNDLFKVNPFQLQQFRAD [TIAF1]
Result: 2.5

Request: Return the recorded protein stability index value; entry: LDPASLAWLTEEEPEPAEVTSTSQ [DDIT3]
Result: 5.53

Request: Return the recorded protein stability index value; entry: PFGILSPNVLCSMSGKSPVESSLN [FBXO34]
Result: 2.64

Request: Return the recorded protein stability index value; entry: PEAISPDLVKKIRDFHRKILTLPE [TRIM15]
Result: 2.68

Request: Return the recorded protein stability index value; entry: NHSLARHADILAAVETRLSLLNMT [FBXO28]
Result: 2.71

Request: Return the recorded protein stability index value; entry: EALQNFFSLACSLMGPSRMSLFSL [M1AP]
Result: 3.09

Request: Return the recorded protein stability index value; entry: VLELHHSKLDTTKALNLLPANTQI [VPS39]
Result: 3.12

Request: Return the recorded protein stability index value; entry: AQIDQYVGLVTNQLSHIKAKIRAK [RTN2]
Result: 2.75

* * *

# ASSAY_METHOD_TEXT: protein stability index of a GFP-peptide fusion (GPS, HEK-293T) (PSI 1-6); higher = more stable
# CONDITION_DETAILS: treatment: MLN4924 1 uM, 8 h; c terminus: a fixed tail appended
Everything with protein stability index lower than 3 is no; everything else, including exactly 3, is yes.

Request: protein stability index >= 3 for SNCLGIRDFAETHNCVDLMQAAEV [KLHL12] ?
Result: yes

Request: protein stability index >= 3 for RSLANGPNAGEQPGQVAGADFESE [EID1] ?
Result: yes

Request: protein stability index >= 3 for KEQHLWDVDLLDSKVIEILDSQTE [DLC1] ?
Result: yes

Request: protein stability index >= 3 for RNQYEALVETNRREVEQWFATQTE [KRT33B] ?
Result: yes

Request: protein stability index >= 3 for TENSALQLQVTEREEVRGRELTGL [LMNB1] ?
Result: yes

Request: protein stability index >= 3 for RPALAQQAQGARAGGSARRPDTGD [GMCL1] ?
Result: yes

Request: protein stability index >= 3 for IERCIFPERIYQGSSGSYFVKDPQ [PI4K2A] ?
Result: yes

Request: protein stability index >= 3 for GLQSYQQALLRISLDKVQRSLGPR [SERTAD3] ?
Result: no

Request: protein stability index >= 3 for SVTGYSFASDGDSGTCSPLRHSFQ [ADD1] ?
Result: yes

Request: protein stability index >= 3 for NFCKHNGSKNVFSTFRTPAVLFTG [ATL3] ?
Result: no

Request: protein stability index >= 3 for MRELGLLIFFLFIGVILFSSAVYF [KCNA4] ?
Result: no

Request: protein stability index >= 3 for RNARIVHLVEETRIHVLPSLNPDG [CPXM2] ?
Result: yes

Request: protein stability index >= 3 for VRNQQSLAVSNMGARSKGQCPEPP [PTPN9] ?
Result: yes

Request: protein stability index >= 3 for IDFLRVVRNQQSLAVSNMGARSKG [PTPN9] ?
Result: yes

Request: protein stability index >= 3 for SNAMLVGDKLKFLSMLLTLKCEMN [ACSBG2] ?
Result: no

Request: protein stability index >= 3 for AGEGRLGHKRKQPLPKRVAKVPRP [FOXJ1] ?
Result: yes

Request: protein stability index >= 3 for MRATPLAAPAGSLSRKKRLELDDN [TRIB3] ?
Result: yes

Request: protein stability index >= 3 for VEKQADTLNVIELNVQKTVDYTGQ [STX11] ?
Result: yes

Request: protein stability index >= 3 for TKADIGTPSNFQHIGHVGWDPNTG [WASL] ?
Result: yes

Request: protein stability index >= 3 for TDIDLQTIDNDIVSMEIFFKAWLH [M1AP] ?
Result: no

Request: protein stability index >= 3 for VQEQQKQLQDQDQKLLEQTQIIGE [FBXO28] ?
Result: yes

* * *

# ASSAY_METHOD_TEXT: protein stability index of a GFP-peptide fusion (GPS, HEK-293T) (PSI 1-6); higher = more stable
# CONDITION_DETAILS: treatment: MLN4924 1 uM, 8 h; c terminus: a fixed tail appended
Everything with protein stability index lower than 3 is False; everything else, including exactly 3, is True.

Request: protein stability index >= 3 for SLELPKAIQDQLPRLQQLLKTLEE [FANCE] ?
Result: False

Request: protein stability index >= 3 for MAAESLPFSFGTLSSWELEAWYED [DDIT3] ?
Result: True

Request: protein stability index >= 3 for AVEDGLQQFKQYSRHVTTRAALTY [M1AP] ?
Result: True

Request: protein stability index >= 3 for GCILQWKKIYCRICMAQIAYSGNT [ZBED1] ?
Result: False

Request: protein stability index >= 3 for QQIQGLISSIEAQLSELRSEMECQ [KRT13] ?
Result: True

Request: protein stability index >= 3 for VQPMDRLPYQHFSAHFTSGPLVPR [TBX5] ?
Result: False

Request: protein stability index >= 3 for CVKNELLPSHPLELSEKNFQLNQD [POMP] ?
Result: True

Request: protein stability index >= 3 for EYDTVTREVKVLLDQLRFPNGVQL [APMAP] ?
Result: False

Request: protein stability index >= 3 for SYKYTSRYVLKAGQTVTIWAANAG [LMNB1] ?
Result: False

Request: protein stability index >= 3 for ESAAFSQGSRSGVSGGSRSLNMSR [PHTF1] ?
Result: True

Request: protein stability index >= 3 for LLCLRAVTHREGAPPLPGAESFPG [PLEKHN1] ?
Result: True

Request: protein stability index >= 3 for NSKPQDLTDAYGPPSNFLEIDIFN [SNX12] ?
Result: True

Request: protein stability index >= 3 for RSLQDLARIAIRGTIKKIIHQETV [PCMTD2] ?
Result: False

Request: protein stability index >= 3 for LLEPEVADGGGAPPQGGCGGGGCD [KCNA3] ?
Result: True

Request: protein stability index >= 3 for DGLDLDWEYPGSQGSPAVDKERFT [CHIT1] ?
Result: True

Request: protein stability index >= 3 for RLVELAGQSLLKDEALAIAALELL [PRAME] ?
Result: False

Request: protein stability index >= 3 for LKILKPSIPLERIHFDSYITCVSG [FBXO33] ?
Result: False

Request: protein stability index >= 3 for HQSLSLASSPKGTIENILDNDPRD [CDC25A] ?
Result: True

Request: protein stability index >= 3 for STVISSMPCLLMELRRDSSESQLA [C18orf25] ?
Result: True

Request: protein stability index >= 3 for LLTHRCLRDEHRCASKYGRDWERY [DHCR7] ?
Result: False

Request: protein stability index >= 3 for SLGGIRACTLTVFPPEETTPSPSR [KLHL13] ?
Result: True

Request: protein stability index >= 3 for ISEHEHFTDFNATSALFWEQHDLV [CLPTM1] ?
Result: True

Request: protein stability index >= 3 for PELMEHTEAESEQEGSSGMELSWG [TEX19] ?
Result: True

Request: protein stability index >= 3 for MPQSEEHLLEAEPLSPIQASSVHL ?
Result: True

Request: protein stability index >= 3 for VALGHAYHPEEFVCSQCGKVLEEG [PDLIM7] ?
Result: True

Request: protein stability index >= 3 for LINKMLTINPSKRITAAEALKHPW [CAMK2A] ?
Result: False

Request: protein stability index >= 3 for NWQPAVPLMHMLHLSGALDFPRQS [SPATS1] ?
Result: False

Request: protein stability index >= 3 for NILPNTQKVTCFYQPAPYFAAEAR [TENT5D] ?
Result: False

Request: protein stability index >= 3 for EKNLLLQNQVDELERKFRCQQEQL [LRRC45] ?
Result: True
